Format: in vivo, healthy Japanese male volunteers
Conditions: male, human, plasma, oral, 3 mg, tmax, CYP2D6 IM; APZ alone (period I); PRX group; single oral 3 mg APZ; mean ± SD
Reported Metric: tmax (h)
Could you give me the number in h? Just the number is fine.

Provide measured tmax value, entry: O=C1CCc2ccc(OCCCCN3CCN(c4cccc(Cl)c4Cl)CC3)cc2N1
3.3

---

Format: in vivo, healthy Japanese male volunteers
Details: male, human, plasma, oral, 3 mg
Reported Metric: Cmax (ng/mL)
# output: bare number, implied unit ng/mL

Give Cmax for O=C1CCc2ccc(OCCCCN3CCN(c4cccc(Cl)c4Cl)CC3)cc2N1 [Aripiprazole, aripiprazole]
14.5

---

Type: in vivo, healthy Japanese male volunteers
Conditions: male, human, plasma, po, 3 mg
Reported Metric: AUC (ng·h/mL)
Give the value, in units of ng·h/mL, as a plain number.

Entry O=C1CCc2ccc(OCCCCN3CCN(c4cccc(Cl)c4Cl)CC3)cc2N1 needs its AUC filled in; supply it.
582

---

Type: in vivo, healthy Japanese male volunteers
Conditions: male, human, plasma, po, 3 mg
Reported Metric: AUC (ng·h/mL)
Please give a number only; it is taken to be in ng·h/mL.

Fill in AUC for record O=C1CCc2ccc(OCCCCN3CCN(c4cccc(Cl)c4Cl)CC3)cc2N1
935

---

Assay type: in vivo, healthy Japanese male volunteers
Settings: male, human, plasma, oral, 3 mg
Reported Metric: half-life (h)
Note: unit h is implicit; provide only the numeric part.

Specify measured half-life for O=C1CCc2ccc(OCCCCN3CCN(c4cccc(Cl)c4Cl)CC3)cc2N1 .
107

---

Format: in vivo, healthy Japanese male volunteers
Conditions: male, human, plasma, oral, 3 mg
Reported Metric: AUC (ng·h/mL)
Kindly provide the numeric value in ng·h/mL only, without the unit symbol.

Look up and state reported AUC for O=C1CCc2ccc(OCCCCN3CCN(c4cccc(Cl)c4Cl)CC3)cc2N1
1320

---

Type: in vivo, healthy Japanese male volunteers
Settings: male, human, plasma, po, 3 mg
Reported Metric: half-life (h)
Answer format: numeric, h implied, no suffix.

Fill in reported half-life for this entry: O=C1CCc2ccc(OCCCCN3CCN(c4cccc(Cl)c4Cl)CC3)cc2N1
60.7

---

Format: in vivo, healthy Japanese male volunteers
Conditions: male, human, plasma, oral, 3 mg
Reported Metric: half-life (h)
Write the number in h without appending the unit.

Return half-life for the following compound: O=C1CCc2ccc(OCCCCN3CCN(c4cccc(Cl)c4Cl)CC3)cc2N1
105
